testedSystem: Kappa-type opioid receptor (Homo sapiens, UniProt P41145)
Sequence (P41145 whole entry): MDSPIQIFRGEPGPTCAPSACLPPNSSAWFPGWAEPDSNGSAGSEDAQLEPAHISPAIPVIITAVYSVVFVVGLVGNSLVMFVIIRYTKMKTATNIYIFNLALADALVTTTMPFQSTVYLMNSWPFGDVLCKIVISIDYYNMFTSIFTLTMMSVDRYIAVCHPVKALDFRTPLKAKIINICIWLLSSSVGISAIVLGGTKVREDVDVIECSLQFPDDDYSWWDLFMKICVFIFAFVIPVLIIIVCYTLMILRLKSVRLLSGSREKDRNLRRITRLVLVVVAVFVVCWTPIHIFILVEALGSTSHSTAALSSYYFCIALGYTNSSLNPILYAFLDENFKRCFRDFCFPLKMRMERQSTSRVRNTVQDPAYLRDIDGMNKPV
procedureText: Agonist activity at human kappa opioid receptor expressed in CHO cells assessed as stimulation of [35S]GTPgammaS binding
// NB: equality with 100 nM counts as NO; only EC50 strictly below is YES

Decide: EC50 of `CCO[C@H]1C[C@@H](C(=O)OC)[C@]2(C)CC[C@H]3C(=O)O[C@H](c4ccoc4)C[C@]3(C)[C@H]2C1=O` strictly below 100 nM?
YES

Next record, please: `COCCOCO[C@H]1C[C@@H](C(=O)OC)[C@]2(C)CC[C@H]3C(=O)O[C@H](c4ccoc4)C[C@]3(C)[C@H]2C1=O`
NO

Next record, please: `CCOCO[C@H]1C[C@@H](C(=O)OC)[C@]2(C)CC[C@H]3C(=O)O[C@H](c4ccoc4)C[C@]3(C)[C@H]2C1=O`
YES

Next record, please: `COC(=O)[C@@H]1C[C@H](OCOC(C)C)C(=O)[C@H]2[C@@]1(C)CC[C@H]1C(=O)O[C@H](c3ccoc3)C[C@]21C`
YES

Next record, please: `COC(=O)[C@@H]1C[C@H](OCOCC(F)(F)F)C(=O)[C@H]2[C@@]1(C)CC[C@H]1C(=O)O[C@H](c3ccoc3)C[C@]21C`
YES

Next record, please: `COC(=O)[C@@H]1C[C@H](OC(C)(C)OC)C(=O)[C@H]2[C@@]1(C)CC[C@H]1C(=O)O[C@H](c3ccoc3)C[C@]21C`
YES

Next record, please: COC(=O)[C@@H]1C[C@H](OC2CCCCO2)C(=O)[C@H]2[C@@]1(C)CC[C@H]1C(=O)O[C@H](c3ccoc3)C[C@]21C (stereo not given in full)
YES

Next record, please: `COC(=O)[C@@H]1C[C@H](OCOC(C)(C)C)C(=O)[C@H]2[C@@]1(C)CC[C@H]1C(=O)O[C@H](c3ccoc3)C[C@]21C`
NO

***
Decide: EC50 of `COC(=O)[C@@H]1C[C@H](OCOCc2ccccc2)C(=O)[C@H]2[C@@]1(C)CC[C@H]1C(=O)O[C@H](c3ccoc3)C[C@]21C` strictly below 100 nM?
NO

Next record, please: `COC(=O)[C@@H]1C[C@H](OCOCC[Si](C)(C)C)C(=O)[C@H]2[C@@]1(C)CC[C@H]1C(=O)O[C@H](c3ccoc3)C[C@]21C`
NO

* * *

pKi, Kappa-type opioid receptor (Homo sapiens): measured values
Scale note: pKi = -log10(concentration in M).

What value of measured pKi is listed for `COC(=O)[C@@H]1C[C@H](OCOCc2ccccc2)C(=O)[C@H]2[C@@]1(C)CC[C@H]1C(=O)O[C@H](c3ccoc3)C[C@]21C` ?
6.83

Proceeding to the next molecule to report its pKi.
What value of measured pKi is listed for `COC(=O)[C@@H]1C[C@H](OCF)C(=O)[C@H]2[C@@]1(C)CC[C@H]1C(=O)O[C@H](c3ccoc3)C[C@]21C` ?
7.30

* * *

testedSystem: Mu-type opioid receptor (Rattus norvegicus)
Sequence (P33535 whole entry): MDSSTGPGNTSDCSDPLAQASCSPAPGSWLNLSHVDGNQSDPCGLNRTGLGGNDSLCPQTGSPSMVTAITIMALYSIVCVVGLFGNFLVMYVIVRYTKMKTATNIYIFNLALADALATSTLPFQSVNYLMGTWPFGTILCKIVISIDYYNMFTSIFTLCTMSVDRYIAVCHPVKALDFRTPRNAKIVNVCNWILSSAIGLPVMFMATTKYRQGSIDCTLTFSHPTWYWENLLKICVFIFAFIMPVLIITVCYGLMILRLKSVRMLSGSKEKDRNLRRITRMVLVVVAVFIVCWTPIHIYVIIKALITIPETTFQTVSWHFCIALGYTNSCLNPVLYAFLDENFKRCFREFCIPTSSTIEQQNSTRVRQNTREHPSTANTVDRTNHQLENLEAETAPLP
procedureText: Displacement of [3H]diprenorphine from rat mu opioid receptor expressed in CHO cells
Type: cell-based
measureName: Ki

What value of measured Ki is listed for `CCCCOCO[C@H]1C[C@@H](C(=O)OC)[C@]2(C)CC[C@H]3C(=O)O[C@H](c4ccoc4)C[C@]3(C)[C@H]2C1=O` ?
> 1000 nM

Next record, please: `COCCOCO[C@H]1C[C@@H](C(=O)OC)[C@]2(C)CC[C@H]3C(=O)O[C@H](c4ccoc4)C[C@]3(C)[C@H]2C1=O`
> 1000 nM

Next record, please: `COC(=O)[C@@H]1C[C@H](OCOCCF)C(=O)[C@H]2[C@@]1(C)CC[C@H]1C(=O)O[C@H](c3ccoc3)C[C@]21C`
> 1000 nM
